Below, each entry is listed with its recorded apparent KD of MS2 coat protein.
Test system: MS2 coat protein
Test: apparent KD of MS2 coat protein; designed switch direction (-1 OFF switch, 1 ON switch): 1; higher = weaker reporter binding
Conditions: Eterna round: R95; input ligand: none
reported endpoint: apparent KD of MS2 coat protein (µM)

residue codes	reported endpoint	result
AGUUGUGGAAAACUAUAGCAAAAGUAUGUACAUGAGGAUCACCCAUGUCAUGUACAAGCUUUUUGCUCGUCUUAAAA [ak 4 mod of one Eli's designs.] (puzzle: Sensor for hsa-mir-208a)	apparent KD of MS2 coat protein	0.0233
GGAGCCGGUACUGAGGAUAUUCAUAUUAAAACAUGAGGAUCACCCAUGUAGGCCAGAAGGCCUUGGGAGAAGGCAGGCCAGCUCG [Atgexeedri - 4] (puzzle: Same State 2)	apparent KD of MS2 coat protein	0.458
UUUUUUAAGACGAGACAAGCUUUUUGAUCACAUGAGGAUCACCCAUGUCUCGUCUUAUUUUUUUUUUUUUUUUUUUU [BA Sensor hsa-mir-208a - 2 - 3] (puzzle: Sensor for hsa-mir-208a)	apparent KD of MS2 coat protein	0.0169
AGCUAUCGCGUACGAUAGCUGAAGCGUGUACAUGAGGAUCACCCAUGUCAUGUACAAGCUUUUUGCUCGUCUUAUUG [JL-shm-2.28 JL mod] (puzzle: Sensor for hsa-mir-208a)	apparent KD of MS2 coat protein	0.296
GUGAAACAUGAGGAUCACCCAUGUAUGACGGGCACAGGAUAUCGUGGUUCGCUCAUACUACGAGAAGGGUGAAAAG [Inordien] (puzzle: Same State 1)	apparent KD of MS2 coat protein	0.0189
AUAAGGCAAGCUUUUUUCUCGUAGUGUAAACAUGAGGAUCACCCAUGUGCCCACCCUGGAUCUUUGGAUCGCAAAAC [Ceatgeor] (puzzle: Sensor for hsa-mir-208a)	apparent KD of MS2 coat protein	0.0237
UCUUGGUUUUUGCUCGUUUUUUGUGUUGAACAUGAGGAUCACCCAUGUAUUGUACGGUCCAAUUUGAUAAUGGUCCG [JMF 27] (puzzle: Sensor for hsa-mir-208a)	apparent KD of MS2 coat protein	0.0256
UGGAUCUAGGCUUGCCUGGGUCCAUGUUGACAUGAGGAUCACCCAUGUGUAUUUUUUUAGCUUUUUGUUUGUCAACA [JL A Humble Attempt mod 5] (puzzle: Sensor for hsa-mir-208a)	apparent KD of MS2 coat protein	0.0411
UUUAGUUGCGGGCAGGAUAUGUAUUAAAAUACAUGAGGAUCACCCAUGUGCGGGUAUAACACCCGAUAGAAGGGCCAAUCGCGAC [Laonerce - 11] (puzzle: Same State 2)	apparent KD of MS2 coat protein	0.0719
GAGAGAGGAAGCGAGGAUAUCGUGUGGAGUACAUGAGGAUCACCCAUGUUGUAGGUAGAGGUAGGCGAGAAGGCGCAGGAGAGGU [JR_SS2_Sub097] (puzzle: Same State 2)	apparent KD of MS2 coat protein	0.0581
